Tested on: Human betaherpesvirus 5
Test: Compound was evaluated for its antiviral activity by its ability to inhibit Towne strain of HCMV virus.The plaque assay was used
Type: functional, organism-based
Reported Endpoint: IC50 (µM)
# output: bare number, implied unit µM

Task: Give its IC50 value. Item: OC[C@H]1O[C@H](n2c(Br)nc3cc(Cl)c(Cl)cc32)[C@@H](O)[C@H]1O (stereo in doubt; 4a)
Output: 2.8

---

For each record, write down the corresponding IC90.
System: Human betaherpesvirus 5
Test: Compound was evaluated for its antiviral activity against HCMV virus using Yield reduction assay.
Lab book: enter the figure in nM, no units written.

Task: // lookup IC90 for C[C@@H]1O[C@@H](n2c(Br)nc3cc(Cl)c(Cl)cc32)[C@H](O)[C@@H]1O
Output: 2000

Task: Name the reported IC90 value associated with the molecule OC[C@H]1O[C@H](n2c(Br)nc3cc(Cl)c(Cl)cc32)[C@@H](O)[C@H]1O (stereo in doubt; 4a)
Output: 800

Task: Query: IC90; subject: C[C@H]1O[C@@H](n2c(Br)nc3cc(Cl)c(Cl)cc32)[C@H](O)[C@@H]1O
Output: 12000

Task: Could you share which IC90 value was measured for CCCNc1nc2cc(Cl)c(Cl)cc2n1[C@@H]1O[C@H](C)[C@@H](O)[C@H]1O ?
Output: 2000

Task: Bench note: what IC90 did CCCNc1nc2cc(Cl)c(Cl)cc2n1[C@@H]1O[C@@H](CO)[C@@H](O)[C@H]1O show?
Output: 19000

---

Test system: Human alphaherpesvirus 1
Assay: Antiviral activity evaluated by its ability to inhibit the KOS strain of herpes simplex virus type-1 (HSV-1).ELISA was used
Reported Endpoint: pIC50
pIC50 field: float, defined as -log10 of concentration (mol/L).

Task: Which pIC50 reading was recorded for the molecule OC[C@H]1O[C@H](n2c(Br)nc3cc(Cl)c(Cl)cc32)[C@@H](O)[C@H]1O (stereo in doubt; 4b) ?
Output: 4.30

---

Test system: Human betaherpesvirus 5
Test: Compound was evaluated for its antiviral activity against HCMV virus using Yield reduction assay.
Reported Endpoint: IC90 (µM)
Enter your answer as a number in µM; do not include the unit.

Task: GET /values?readout=IC90&item= C[C@@H]1O[C@@H](n2c(Cl)nc3cc(Cl)c(Cl)cc32)[C@H](O)[C@@H]1O
Output: 0.2

Task: Requested read-out: IC90. Entry: CCCNc1nc2cc(Cl)c(Cl)cc2n1[C@@H]1O[C@H](CO)[C@@H](O)[C@H]1O
Output: 17

Task: Query: IC90; subject: CCCNc1nc2cc(Cl)c(Cl)cc2n1[C@@H]1O[C@@H](C)[C@@H](O)[C@H]1O
Output: 2.8

Task: Fill in the blank: the reported IC90 of OC[C@H]1O[C@@H](n2c(Cl)nc3cc(Cl)c(Cl)cc32)[C@H](O)[C@@H]1O is ____.
Output: 3.4

Task: Returns the measured IC90 for the input compound. Input: C[C@H]1O[C@@H](n2c(Cl)nc3cc(Cl)c(Cl)cc32)[C@H](O)[C@@H]1O
Output: 8

---

Could you please report measured IC50 for the items listed next?
System: Human alphaherpesvirus 1
Test: Antiviral activity evaluated by their ability to inhibit the KOS strain of herpes simplex virus type-1 (HSV-1).ELISA was used

Task: What value of IC50 has been reported for the following compound? OC[C@H]1O[C@@H](n2c(Cl)nc3cc(Cl)c(Cl)cc32)[C@H](O)[C@@H]1O
Output: > 100 µM

Task: Please report the recorded IC50 for OC[C@H]1O[C@@H](n2c(S)nc3cc(Cl)c(Cl)cc32)[C@H](O)[C@@H]1O .
Output: > 100 µM

Task: Consider the compound shown here: CCCNc1nc2cc(Cl)c(Cl)cc2n1[C@@H]1O[C@H](CO)[C@@H](O)[C@H]1O What is its recorded IC50?
Output: > 100 µM

Task: # query: IC50 of entry OC[C@H]1O[C@H](n2c(Cl)nc3cc(Cl)c(Cl)cc32)[C@@H](O)[C@H]1O
Output: 90 µM

Task: // IC50 lookup, key: C[C@H]1O[C@@H](n2c(Cl)nc3cc(Cl)c(Cl)cc32)[C@H](O)[C@@H]1O
Output: 60 µM

Task: Looking for the measured IC50 of C[C@@H]1O[C@@H](n2c(Br)nc3cc(Cl)c(Cl)cc32)[C@H](O)[C@@H]1O , can you help?
Output: > 100 µM

Task: Recorded IC50 of CNc1nc2cc(Cl)c(Cl)cc2n1[C@@H]1O[C@H](CO)[C@@H](O)[C@H]1O , please.
Output: > 100 µM

Task: Value lookup for IC50; key = OC[C@@H]1O[C@@H](n2c(S)nc3cc(Cl)c(Cl)cc32)[C@H](O)[C@@H]1O
Output: > 100 µM

Task: Recorded IC50 for C[C@H]1O[C@@H](n2c(Br)nc3cc(Cl)c(Cl)cc32)[C@H](O)[C@@H]1O , please?
Output: 50 µM

Task: Given the entry CSc1nc2cc(Cl)c(Cl)cc2n1[C@@H]1O[C@@H](CO)[C@@H](O)[C@H]1O , report its measured IC50.
Output: > 100 µM

Task: Endpoint output: IC50 of CSc1nc2cc(Cl)c(Cl)cc2n1[C@@H]1O[C@H](CO)[C@@H](O)[C@H]1O . Value?
Output: > 100 µM

Task: Field request: IC50 | item: CCCNc1nc2cc(Cl)c(Cl)cc2n1[C@@H]1O[C@@H](CO)[C@@H](O)[C@H]1O
Output: > 100 µM

Task: Name the recorded IC50 for CCCNc1nc2cc(Cl)c(Cl)cc2n1[C@@H]1O[C@@H](C)[C@@H](O)[C@H]1O .
Output: > 100 µM

Task: Sample C[C@@H]1O[C@@H](n2c(Cl)nc3cc(Cl)c(Cl)cc32)[C@H](O)[C@@H]1O — what was its IC50?
Output: 20 µM

Task: Fill in the blank: the reported IC50 of CNc1nc2cc(Cl)c(Cl)cc2n1[C@@H]1O[C@@H](CO)[C@@H](O)[C@H]1O is ____.
Output: > 100 µM
